experiment: inhibitors of TWEAK-Fn14 signaling, primary screen, luciferase reporter cells, uHTS (AID 1159606); conditions: TWEAK-stimulated Fn14 reporter cells, luciferase luminescence, 8 h; at 10 µM; stronger effect = higher value
Hit rate of the full screen: of about 360,000 compounds, about 7,300 (2%) were called active. What follows is part of a selection rich in actives, with near analogues and random picks from the rest.
Reported inhibition values are given for each entry in this list.
testReadout: inhibition (%)

compound=CCCNC(=O)c1c(Cl)cnn1-c1ccc(C)cc1 valuemeasured=-19.4
compound=O=C(NCC(=O)N1CCN(c2ccccc2O)CC1)c1ccc2ccccc2c1 valuemeasured=-22.9
compound=C[C@H](CO)N1C[C@H](C)[C@@H](CN(C)Cc2ccc3c(c2)OCO3)OCc2cnnn2CCCC1=O valuemeasured=-16.3
compound=S=C(NN=Cc1ccccn1)Nc1ccccn1 valuemeasured=105
compound="COCOCCn1cc(CN2CCS(=O)(=O)N(Cc3ccc(-c4ccc(OC)cc4)cc3)C(CC(C)C)C2=O)nn1 (configuration not stated)" valuemeasured=-6.75
compound=O=C(OCc1ccccc1F)c1ccc2c(c1)OCCO2 valuemeasured=-12.5
compound=COc1ccc(C(=O)CSc2n[nH]c(N)n2)cc1 valuemeasured=-14.2
compound=CCOC(=O)c1cc(C)sc1NC(=O)C1CCC1 valuemeasured=13.5
compound=C#CCN(N(C)c1ncc(C(F)(F)F)cc1Cl)S(=O)(=O)c1ccc2ccccc2c1 valuemeasured=18
compound=Oc1c(Br)cccc1/C=N/Nc1c(F)c(F)c(F)c(F)c1F valuemeasured=71.5
compound=Cc1ccnc(SCCn2c(N(C)Cc3ccccc3)nc3c2c(=O)n(C)c(=O)n3C)n1 valuemeasured=-11.8
compound=COc1cc2[nH]c(=S)n(Cc3ccc(F)cc3)c(=O)c2cc1OC valuemeasured=-27
compound=CC(=O)Nc1c2c(nn1-c1cccc(C)c1)CSC2 valuemeasured=-5.72
compound=CC(=O)c1cccc(-c2cnc3c(NC=O)cc(-c4ccc(N(C)C)cc4)cn23)c1 valuemeasured=19.9
compound=CC(=O)Nc1cccc(C(=O)OCC(=O)NCc2cc(C)c(O)c(C)c2)c1 valuemeasured=-19.2
compound="CC1CCC(NC(=O)CN(C)S(=O)(=O)c2ccc3c(c2)c(=O)n(C)c(=O)n3C)CC1 (configuration not stated)" valuemeasured=-18.7
compound=Cc1ccc([C@H]2C[C@H](O)[C@@H](n3cc(COC(=O)c4ccccc4)nn3)CN2C(=O)C2CCCCC2)cc1 valuemeasured=21
compound=Cc1csc(=O)n1CCC(=O)OCC(=O)Nc1ccc(N2CCOCC2)cc1 valuemeasured=-8.76
compound=COc1ccc(-n2c(-c3ccc(Cl)cc3)n[nH]c2=S)c(OC)c1 valuemeasured=0.97
compound=O=S(=O)(c1ccc(F)cc1)N1CCN=C1SCc1cccc(F)c1 valuemeasured=-11.2
compound="COc1ccc(CCN2CC(C(=O)NCCN3CCNC3=O)CCC2=O)cc1 (configuration not stated)" valuemeasured=-4.1
compound=Brc1ccccc1/C=N/Nc1nc2ccccc2o1 valuemeasured=-8.62
compound=O=C(COC(=O)c1ccccc1)c1ccc2c(c1)OCCO2 valuemeasured=77.6
compound=C#Cc1ccc([C@@H]2C=C(C(=O)O)O[C@H](OCCCCO)C2)cc1 valuemeasured=-4.22
compound=C[C@@H]1CN([C@@H](C)CO)C(=O)CCCn2nncc2CO[C@H]1CN(C)C(=O)Nc1ccc(C(F)(F)F)cc1 valuemeasured=106
compound=C=CCC[C@H](CCCCC)OC(=O)/C=C/[C@H](O)[C@@H](O)C[C@@H](O)CC=C valuemeasured=2.69
compound=S=C(Nc1cccnc1)Nc1ccccn1 valuemeasured=-12.4
compound="CC1CN(c2cc(=O)n(Cc3ccc(F)cc3)c(=O)[nH]2)CC(C)O1 (configuration not stated)" valuemeasured=-5.29
compound=CC(=O)Nc1cccc(-c2cc(NC(C)=O)c3ncc(-c4ccccc4)n3c2)c1 valuemeasured=89.2
compound="CCOc1cc2[nH]c(=S)n(CCN3CCCCC3C)c(=O)c2cc1OCC (configuration not stated)" valuemeasured=-2.73
compound=COc1cccc(-c2cc(NC(C)=O)c3ncc(-c4cccc(C(C)=O)c4)n3c2)c1 valuemeasured=12.6
compound="COc1ccc(-c2ccc(CN3C(CC(C)C)C(=O)N(Cc4cn(CC5CCCCC5)nn4)CCS3(=O)=O)cc2)cc1 (configuration not stated)" valuemeasured=24.8
compound="COc1ccc(CN2C(=O)C(CC(=O)NCCN3CCOCC3)CC(C(=O)N(C(C)C)C(C)C)=C2C)cc1 (configuration not stated)" valuemeasured=14.2
compound=CCOC(=O)[C@]12CCC=C1N(Cc1ccccc1)C(=O)[C@H](CC(=O)N1CCCC1)C2 valuemeasured=15.9
compound="CC(NC(=O)Nc1ccccc1)C(c1cccs1)N1CCN(c2ccccc2)CC1 (configuration not stated)" valuemeasured=1.76
compound=COc1ccc(C(=O)OCC(=O)Nc2cccc(C(C)=O)c2)cc1OC valuemeasured=11.4
compound=c1ccc(CN2CCC(N=C3NN=C(c4ccc5c(c4)OCCO5)CS3)CC2)cc1 valuemeasured=57.6
compound=CN(C)c1nc(=Nc2cccc(Cl)c2)ss1 valuemeasured=5.73
compound="COc1cc2[nH]c(=S)n(CCN3CCCCC3C)c(=O)c2cc1OC (configuration not stated)" valuemeasured=77.3
compound=NS(=O)(=O)c1cccc(NC(=O)COC(=O)c2cc([N+](=O)[O-])ccc2N2CCCC2)c1 valuemeasured=-16.4
compound=CC(=O)Nc1cccc(C(=O)OCC(=O)c2ccc3c(c2)OCO3)c1 valuemeasured=81.9
compound=Cc1nn(-c2ccccc2)c(=O)c2noc(C)c12 valuemeasured=2.03
